- system: KRas G12V (Homo sapiens, UniProt P01116, G12V)
- Sequence (P01116 1-169 isoform P01116-2 G12V): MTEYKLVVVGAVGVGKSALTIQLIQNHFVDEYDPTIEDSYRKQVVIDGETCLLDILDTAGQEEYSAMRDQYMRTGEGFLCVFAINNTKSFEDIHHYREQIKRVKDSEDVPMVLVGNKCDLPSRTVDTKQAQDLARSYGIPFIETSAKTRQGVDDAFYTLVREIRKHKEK
- assay.details: biochemical
- recorded.conditions: Binding to KRas (IC50 nM) G12V, TR-FRET displacement, KRas G12V
readout.type: IC50 (nM)

Example cases with answers are listed next.
[[record]]
smiles_code = "CCc1cccc2cccc(N3CCc4c(nc(OCC5(CN(C)C)CC5)nc4N(C)Cc4nnnn4C)C3)c12"
readout_type = "IC50"
unit_abbrev = "nM"
readout_number = 3180

[[record]]
smiles_code = "CCc1c(F)ccc2cc(O)cc(N3CCc4c(nc(OC[C@@]56CCCN5C[C@H](F)C6)nc4N4CCCn5nc(P(C)(C)=O)cc5C4)C3)c12"
readout_type = "IC50"
unit_abbrev = "nM"
readout_number = 3


a = CCc1c(F)ccc2cc(O)cc(N3CCc4c(nc(OC[C@@]56CCCN5C[C@H](F)C6)nc4N4CCCn5nc(CN(C)C(=O)N(C)C)cc5C4)C3)c12
b = CCc1c(F)ccc2cc(O)cc(N3CCc4c(nc(OC[C@@]56CCCN5C[C@H](F)C6)nc4N4CCCn5nc6c(c5C4)CCCN6)C3)c12
Input: Kindly identify the item with the lower IC50 figure among these two: a and b State the label of the item chosen.
Output: b
(b: 2 nM, a: 6 nM)
